Cited source for all entries: the supplement of paper PMC11908140

B1: library; numbered along this chain (parent)
chain: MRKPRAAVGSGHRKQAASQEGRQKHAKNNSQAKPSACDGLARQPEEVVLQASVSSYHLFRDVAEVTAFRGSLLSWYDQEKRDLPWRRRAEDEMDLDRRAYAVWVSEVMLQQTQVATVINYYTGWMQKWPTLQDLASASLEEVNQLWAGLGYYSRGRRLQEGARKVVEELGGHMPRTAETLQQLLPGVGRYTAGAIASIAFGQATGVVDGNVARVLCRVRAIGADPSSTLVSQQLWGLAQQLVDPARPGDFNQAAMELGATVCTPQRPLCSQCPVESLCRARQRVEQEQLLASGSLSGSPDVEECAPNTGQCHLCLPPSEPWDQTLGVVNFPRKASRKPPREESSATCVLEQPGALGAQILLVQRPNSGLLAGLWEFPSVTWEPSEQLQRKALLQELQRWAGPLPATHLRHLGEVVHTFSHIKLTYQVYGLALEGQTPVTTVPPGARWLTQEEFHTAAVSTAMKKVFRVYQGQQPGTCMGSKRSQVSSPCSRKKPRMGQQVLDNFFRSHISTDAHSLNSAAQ

variants of: B1; experiment: 8OG:A repair function score (normalized; synonymous = 0, nonsense = -1) (normalized log-likelihood score); higher = more repair activity (WT-like); conditions: with 8OG:A DNA repair reporter (GFP) in HEK-293 MUTYH KO cells;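 further: cells sorted at 72 h after reporter transfection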
List of 8OG:A repair function score values.
Quick one: just the number, no unit, thanks!

Some variants with recorded 8OG:A repair function score:
A513I : 0.00892
V438G : -0.176
D249P : -0.588
S105F : -1.43

Task: Item T66D has what recorded 8OG:A repair function score?
Result: 0.00573

Task: I have this variant here, L355K , and I need its recorded 8OG:A repair function score.
Result: -0.0816

Task: # lookup: 8OG:A repair function score of P264A
Result: -0.0364

Task: Which 8OG:A repair function score is reported for this variant? P247R
Result: -1
